- Target of assay: T1, cyno FcRn/b2M (cyno, UniProt Q8SPV9 24-297; Q8SPW0 21-119, biotinylated)
- T1 construct: bought recombinant biotinylated protein (Immunitrack ITF05 or ACRO FCM-C82W5); also called cFcRn; cFcRn/cb2M
- T1 sequence (Q8SPV9 24-297 limits assumed, chain 1 of 2): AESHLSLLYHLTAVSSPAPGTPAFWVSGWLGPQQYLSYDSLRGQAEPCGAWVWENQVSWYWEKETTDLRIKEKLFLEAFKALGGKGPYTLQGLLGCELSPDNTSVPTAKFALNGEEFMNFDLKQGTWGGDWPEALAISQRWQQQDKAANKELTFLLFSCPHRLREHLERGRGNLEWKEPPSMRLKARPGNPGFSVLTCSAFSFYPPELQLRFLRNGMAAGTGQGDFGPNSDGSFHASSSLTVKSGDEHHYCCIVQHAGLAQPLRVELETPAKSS
- T1 sequence (Q8SPW0 21-119 limits assumed, chain 2 of 2): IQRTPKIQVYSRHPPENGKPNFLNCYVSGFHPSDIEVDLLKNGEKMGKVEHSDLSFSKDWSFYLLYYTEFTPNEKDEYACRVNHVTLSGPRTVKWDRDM
- Procedure text: SPR pH 7.4;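 further: surface plasmon resonance kinetics, periplasmic extracts diluted 1:10 flowed over immobilized target at 25 °C, 120 s association then 600–3600 s dissociation, buffer with 150 mM NaCl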
Label criterion met when koff is at or above 0.1 s⁻¹; anything below gets criterion not met.

Decide: koff of T0263018B11 S52D (VHH, name in Kabat numbering, FLAG3-His6 tagged) VHH: EVQLVESGGGVVQPGGSLRLSCAASGFTFSSYAMYWVRQAPGKGLEWVSAIDSGGGSTDYADSVKGRFTISRDNSKNTLYLQMNSLRPEDTALYYCAADTLYTSLTWYSYWGQGTLVTVSS >= 0.1 s⁻¹?
criterion met

Threshold query (koff >= 0.1 s⁻¹) on T0263018B11 W100cD (VHH, name in Kabat numbering, FLAG3-His6 tagged) VHH: EVQLVESGGGVVQPGGSLRLSCAASGFTFSSYAMYWVRQAPGKGLEWVSAISSGGGSTDYADSVKGRFTISRDNSKNTLYLQMNSLRPEDTALYYCAADTLYTSLTDYSYWGQGTLVTVSS
criterion met

Hello, I need to know if T0263018B11 A33V (VHH, name in Kabat numbering, FLAG3-His6 tagged) VHH: EVQLVESGGGVVQPGGSLRLSCAASGFTFSSYVMYWVRQAPGKGLEWVSAISSGGGSTDYADSVKGRFTISRDNSKNTLYLQMNSLRPEDTALYYCAADTLYTSLTWYSYWGQGTLVTVSS has measured koff not below 0.1 s⁻¹. Thanks!
criterion not met

Exam item: decide whether the reported koff for T0263018B11 F29D (VHH, name in Kabat numbering, FLAG3-His6 tagged) VHH: EVQLVESGGGVVQPGGSLRLSCAASGFTDSSYAMYWVRQAPGKGLEWVSAISSGGGSTDYADSVKGRFTISRDNSKNTLYLQMNSLRPEDTALYYCAADTLYTSLTWYSYWGQGTLVTVSS is at least 0.1 s⁻¹.
criterion met

Entry T0263018B11 T96A (VHH, name in Kabat numbering, FLAG3-His6 tagged) VHH: EVQLVESGGGVVQPGGSLRLSCAASGFTFSSYAMYWVRQAPGKGLEWVSAISSGGGSTDYADSVKGRFTISRDNSKNTLYLQMNSLRPEDTALYYCAADALYTSLTWYSYWGQGTLVTVSS : is its koff no less than 0.1 s⁻¹?
criterion met

Form field: koff at least 0.1 s⁻¹? Entry: T0263018B11 T96G (VHH, name in Kabat numbering, FLAG3-His6 tagged) VHH: EVQLVESGGGVVQPGGSLRLSCAASGFTFSSYAMYWVRQAPGKGLEWVSAISSGGGSTDYADSVKGRFTISRDNSKNTLYLQMNSLRPEDTALYYCAADGLYTSLTWYSYWGQGTLVTVSS
criterion met

Confirm if koff reported for the binder T0263018B11 A33G (VHH, name in Kabat numbering, FLAG3-His6 tagged) VHH: EVQLVESGGGVVQPGGSLRLSCAASGFTFSSYGMYWVRQAPGKGLEWVSAISSGGGSTDYADSVKGRFTISRDNSKNTLYLQMNSLRPEDTALYYCAADTLYTSLTWYSYWGQGTLVTVSS is 0.1 s⁻¹ or above.
criterion not met

Answer whether koff of T0263018B11 S31P (VHH, name in Kabat numbering, FLAG3-His6 tagged) VHH: EVQLVESGGGVVQPGGSLRLSCAASGFTFSPYAMYWVRQAPGKGLEWVSAISSGGGSTDYADSVKGRFTISRDNSKNTLYLQMNSLRPEDTALYYCAADTLYTSLTWYSYWGQGTLVTVSS is greater than or equal to 0.1 s⁻¹.
criterion not met
